Each entry below carries its reported log10 of Ki.
Assayed target: Rhodesain (Trypanosoma brucei rhodesiense)
Sequence (Q95PM0 whole entry): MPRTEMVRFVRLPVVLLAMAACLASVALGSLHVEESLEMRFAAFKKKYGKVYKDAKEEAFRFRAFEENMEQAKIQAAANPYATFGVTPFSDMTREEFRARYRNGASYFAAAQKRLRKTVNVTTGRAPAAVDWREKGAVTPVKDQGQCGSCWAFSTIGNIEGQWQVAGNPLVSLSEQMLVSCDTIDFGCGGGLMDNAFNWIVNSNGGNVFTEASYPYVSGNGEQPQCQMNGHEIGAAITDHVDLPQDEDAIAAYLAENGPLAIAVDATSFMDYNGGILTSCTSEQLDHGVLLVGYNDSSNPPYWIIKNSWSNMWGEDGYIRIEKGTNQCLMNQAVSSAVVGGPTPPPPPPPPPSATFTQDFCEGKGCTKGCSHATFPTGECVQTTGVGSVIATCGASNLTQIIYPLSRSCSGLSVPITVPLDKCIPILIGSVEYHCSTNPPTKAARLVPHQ
Method description: Inhibition of Trypanosoma brucei rhodesain assessed as fluorescence using Cbz-Phe-Arg-AMC as substrate measured at second inhibition step by fluorometric enzyme assays
Measurement type: log10 of Ki (log10 of the value in nM)

>  <Structure smiles string>
Cc1ccc(C[C@H](NC(=O)c2ccc3c(c2)OCCO3)C(=O)N[C@H](/C=C(\F)S(=O)(=O)Cc2ccccc2)CCc2ccccc2)cc1

>  <Assayed target>
Rhodesain (Trypanosoma brucei rhodesiense)

>  <Measurement type>
log10 of Ki

>  <Result number>
1.15

$$$$
>  <Structure smiles string>
Cc1ccc(C[C@H](NC(=O)c2cc(F)cc(F)c2)C(=O)N[C@H](/C=C(\F)S(=O)(=O)Oc2ccccc2)CCc2ccccc2)cc1

>  <Assayed target>
Rhodesain (Trypanosoma brucei rhodesiense)

>  <Measurement type>
log10 of Ki

>  <Result number>
1.53

$$$$
>  <Structure smiles string>
Cc1cccc(C[C@H](NC(=O)c2cc(F)cc(F)c2)C(=O)N[C@H](/C=C(\F)S(=O)(=O)c2ccccc2)CCc2ccccc2)c1

>  <Assayed target>
Rhodesain (Trypanosoma brucei rhodesiense)

>  <Measurement type>
log10 of Ki

>  <Result number>
2.52

$$$$
>  <Structure smiles string>
Cc1cccc(C[C@H](NC(=O)c2ccncc2)C(=O)N[C@H](/C=C(\F)S(=O)(=O)Oc2ccccc2)CCc2ccccc2)c1

>  <Assayed target>
Rhodesain (Trypanosoma brucei rhodesiense)

>  <Measurement type>
log10 of Ki

>  <Result number>
1.97

$$$$
>  <Structure smiles string>
Cc1ccc(C[C@H](NC(=O)c2cc[n+]([O-])cc2)C(=O)N[C@H](/C=C/S(=O)(=O)Oc2ccccc2)CCc2ccccc2)cc1

>  <Assayed target>
Rhodesain (Trypanosoma brucei rhodesiense)

>  <Measurement type>
log10 of Ki

>  <Result number>
0.18

$$$$
>  <Structure smiles string>
O=C(N[C@@H](Cc1ccccc1)C(=O)N[C@H](/C=C(\F)S(=O)(=O)Oc1ccccc1)CCc1ccccc1)c1ccc2c(c1)OCCO2

>  <Assayed target>
Rhodesain (Trypanosoma brucei rhodesiense)

>  <Measurement type>
log10 of Ki

>  <Result number>
1.65

$$$$
>  <Structure smiles string>
Cc1cccc(C[C@H](NC(=O)c2cc(F)cc(F)c2)C(=O)N[C@H](/C=C(\F)S(=O)(=O)Cc2ccccc2)CCc2ccccc2)c1

>  <Assayed target>
Rhodesain (Trypanosoma brucei rhodesiense)

>  <Measurement type>
log10 of Ki

>  <Result number>
2.58

$$$$
>  <Structure smiles string>
O=C(N[C@@H](Cc1ccccc1)C(=O)N[C@H](/C=C(\F)S(=O)(=O)Cc1ccccc1)CCc1ccccc1)c1ccncc1

>  <Assayed target>
Rhodesain (Trypanosoma brucei rhodesiense)

>  <Measurement type>
log10 of Ki

>  <Result number>
1.72

$$$$
>  <Structure smiles string>
CN1CCN(C(=O)N[C@@H](Cc2ccccc2)C(=O)N[C@H](/C=C(\F)S(=O)(=O)Oc2ccccc2)CCc2ccccc2)CC1

>  <Assayed target>
Rhodesain (Trypanosoma brucei rhodesiense)

>  <Measurement type>
log10 of Ki

>  <Result number>
2.03

$$$$
>  <Structure smiles string>
O=C(N[C@@H](Cc1ccccc1)C(=O)N[C@H](/C=C(\F)S(=O)(=O)c1ccccc1)CCc1ccccc1)c1cc(F)cc(F)c1

>  <Assayed target>
Rhodesain (Trypanosoma brucei rhodesiense)

>  <Measurement type>
log10 of Ki

>  <Result number>
2.54

$$$$
>  <Structure smiles string>
O=C(N[C@@H](Cc1ccccc1)C(=O)N[C@H](/C=C(\F)S(=O)(=O)Cc1ccccc1)CCc1ccccc1)c1ccc2c(c1)OCCO2

>  <Assayed target>
Rhodesain (Trypanosoma brucei rhodesiense)

>  <Measurement type>
log10 of Ki

>  <Result number>
1.66

$$$$
>  <Structure smiles string>
Cc1cccc(C[C@H](NC(=O)c2ccc3c(c2)OCCO3)C(=O)N[C@H](/C=C(\F)S(=O)(=O)c2ccccc2)CCc2ccccc2)c1

>  <Assayed target>
Rhodesain (Trypanosoma brucei rhodesiense)

>  <Measurement type>
log10 of Ki

>  <Result number>
1.54

$$$$
>  <Structure smiles string>
O=C(N[C@@H](Cc1ccccc1)C(=O)N[C@H](/C=C(/F)S(=O)(=O)Oc1ccccc1)CCc1ccccc1)c1ccncc1

>  <Assayed target>
Rhodesain (Trypanosoma brucei rhodesiense)

>  <Measurement type>
log10 of Ki

>  <Result number>
2.72

$$$$
>  <Structure smiles string>
O=C(N[C@@H](Cc1ccccc1)C(=O)N[C@H](/C=C(\F)S(=O)(=O)Oc1ccccc1)CCc1ccccc1)c1ccncc1

>  <Assayed target>
Rhodesain (Trypanosoma brucei rhodesiense)

>  <Measurement type>
log10 of Ki

>  <Result number>
1.99

$$$$
>  <Structure smiles string>
Cc1ccc(C[C@H](NC(=O)c2ccncc2)C(=O)N[C@H](/C=C/S(=O)(=O)Oc2ccccc2)CCc2ccccc2)cc1

>  <Assayed target>
Rhodesain (Trypanosoma brucei rhodesiense)

>  <Measurement type>
log10 of Ki

>  <Result number>
-0.35

$$$$
>  <Structure smiles string>
Cc1cccc(C[C@H](NC(=O)c2ccncc2)C(=O)N[C@H](/C=C(\F)S(=O)(=O)Cc2ccccc2)CCc2ccccc2)c1

>  <Assayed target>
Rhodesain (Trypanosoma brucei rhodesiense)

>  <Measurement type>
log10 of Ki

>  <Result number>
1.79

$$$$
>  <Structure smiles string>
Cc1ccc(C[C@H](NC(=O)c2cc(F)cc(F)c2)C(=O)N[C@H](/C=C(\F)S(=O)(=O)c2ccccc2)CCc2ccccc2)cc1

>  <Assayed target>
Rhodesain (Trypanosoma brucei rhodesiense)

>  <Measurement type>
log10 of Ki

>  <Result number>
2.00

$$$$
>  <Structure smiles string>
Cc1cccc(C[C@H](NC(=O)c2cc(F)cc(F)c2)C(=O)N[C@H](/C=C(\F)S(=O)(=O)Oc2ccccc2)CCc2ccccc2)c1

>  <Assayed target>
Rhodesain (Trypanosoma brucei rhodesiense)

>  <Measurement type>
log10 of Ki

>  <Result number>
2.18

$$$$
>  <Structure smiles string>
Cc1ccc(C[C@H](NC(=O)c2ccc3c(c2)OCCO3)C(=O)N[C@H](/C=C(\F)S(=O)(=O)Oc2ccccc2)CCc2ccccc2)cc1

>  <Assayed target>
Rhodesain (Trypanosoma brucei rhodesiense)

>  <Measurement type>
log10 of Ki

>  <Result number>
1.99

$$$$
>  <Structure smiles string>
Cc1cccc(C[C@H](NC(=O)c2ccc3c(c2)OCCO3)C(=O)N[C@H](/C=C(\F)S(=O)(=O)Cc2ccccc2)CCc2ccccc2)c1

>  <Assayed target>
Rhodesain (Trypanosoma brucei rhodesiense)

>  <Measurement type>
log10 of Ki

>  <Result number>
1.96

$$$$
>  <Structure smiles string>
CSCC[C@@H](/C=C(\F)S(=O)(=O)c1ccccc1)NC(=O)[C@H](Cc1ccccc1)NC(=O)c1ccncc1

>  <Assayed target>
Rhodesain (Trypanosoma brucei rhodesiense)

>  <Measurement type>
log10 of Ki

>  <Result number>
1.75

$$$$
>  <Structure smiles string>
Cc1ccc(C[C@H](NC(=O)c2ccncc2)C(=O)N[C@H](/C=C(\F)S(=O)(=O)Oc2ccccc2)CCc2ccccc2)cc1

>  <Assayed target>
Rhodesain (Trypanosoma brucei rhodesiense)

>  <Measurement type>
log10 of Ki

>  <Result number>
1.38

$$$$
>  <Structure smiles string>
Cc1ccc(C[C@H](NC(=O)c2cc(F)cc(F)c2)C(=O)N[C@H](/C=C(\F)S(=O)(=O)Cc2ccccc2)CCc2ccccc2)cc1

>  <Assayed target>
Rhodesain (Trypanosoma brucei rhodesiense)

>  <Measurement type>
log10 of Ki

>  <Result number>
1.46

$$$$
>  <Structure smiles string>
Cc1cccc(C[C@H](NC(=O)c2ccc3c(c2)OCCO3)C(=O)N[C@H](/C=C(\F)S(=O)(=O)Oc2ccccc2)CCc2ccccc2)c1

>  <Assayed target>
Rhodesain (Trypanosoma brucei rhodesiense)

>  <Measurement type>
log10 of Ki

>  <Result number>
1.77

$$$$
>  <Structure smiles string>
O=C(N[C@@H](Cc1ccccc1)C(=O)N[C@H](/C=C(\F)S(=O)(=O)Cc1ccccc1)CCc1ccccc1)c1cc(F)cc(F)c1

>  <Assayed target>
Rhodesain (Trypanosoma brucei rhodesiense)

>  <Measurement type>
log10 of Ki

>  <Result number>
2.09

$$$$
>  <Structure smiles string>
Cc1ccc(C[C@H](NC(=O)c2ccncc2)C(=O)N[C@H](/C=C(\F)S(=O)(=O)Cc2ccccc2)CCc2ccccc2)cc1

>  <Assayed target>
Rhodesain (Trypanosoma brucei rhodesiense)

>  <Measurement type>
log10 of Ki

>  <Result number>
1.18

$$$$
>  <Structure smiles string>
O=C(N[C@@H](Cc1ccccc1)C(=O)N[C@H](/C=C(\F)S(=O)(=O)Oc1ccccc1)CCc1ccccc1)OCc1ccccc1

>  <Assayed target>
Rhodesain (Trypanosoma brucei rhodesiense)

>  <Measurement type>
log10 of Ki

>  <Result number>
2.20

$$$$
>  <Structure smiles string>
Cc1cccc(C[C@H](NC(=O)c2ccncc2)C(=O)N[C@H](/C=C(\F)S(=O)(=O)c2ccccc2)CCc2ccccc2)c1

>  <Assayed target>
Rhodesain (Trypanosoma brucei rhodesiense)

>  <Measurement type>
log10 of Ki

>  <Result number>
1.40

$$$$
>  <Structure smiles string>
O=C(N[C@H](/C=C(\F)S(=O)(=O)Oc1ccccc1)CCc1ccccc1)[C@H](Cc1ccccc1)NC(=O)N1CCNCC1

>  <Assayed target>
Rhodesain (Trypanosoma brucei rhodesiense)

>  <Measurement type>
log10 of Ki

>  <Result number>
2.28

$$$$
